- Test system: 786-O
- Assay Details: Euclidean distance of Cell Painting phenotypic profile (signed KS, 77 features) to DMSO centroid (dimensionless distance); 5 or 10 uM (library dependent); higher = stronger phenotypic change vs DMSO (phenoactivity)
- Study Conditions: 48 h
Structures can show the parent of a compound that is named as a salt.
Classify as follows. Reported Euclidean distance greater than or equal to 1: fulfilled. Reported Euclidean distance below: not fulfilled.

{"Molecule": "N=C(N)NC(=O)Cc1c(Cl)cccc1Cl [Guanfacine Hydrochloride]", "Category Label": "fulfilled"}
{"Molecule": "CC1Cc2ccccc2N1NC(=O)c1ccc(Cl)c(S(N)(=O)=O)c1 (stereo unspecified) [Indapamide]", "Category Label": "not fulfilled"}
{"Molecule": "Clc1ccc(COC(Cn2ccnc2)c2ccc(Cl)cc2Cl)c(Cl)c1 (stereo unspecified) [Miconazole Nitrate]", "Category Label": "fulfilled"}
{"Molecule": "CN1CCN(CC(=O)N2c3ccccc3C(=O)Nc3cccnc32)CC1 [Pirenzepine dihydrochloride]", "Category Label": "not fulfilled"}
{"Molecule": "CNC(=C[N+](=O)[O-])NCCSCc1csc(CN(C)C)n1 [Nizatidine]", "Category Label": "fulfilled"}
{"Molecule": "CC(C)(C)c1cnc(CSc2cnc(NC(=O)C3CCNCC3)s2)o1", "Category Label": "fulfilled"}
{"Molecule": "CC(C)Nc1cccnc1N1CCN(C(=O)c2cc3cc(NS(C)(=O)=O)ccc3[nH]2)CC1 [Delavirdine (mesylate)]", "Category Label": "fulfilled"}
{"Molecule": "CC(C)N1CCN(Cc2cnc(-c3cc(-c4cccc5[nH]ccc45)cc4[nH]ncc34)o2)CC1", "Category Label": "fulfilled"}
{"Molecule": "C[C@@H]1C[C@H]2[C@@H]3CCC4=CC(=O)C=C[C@]4(C)[C@@]3(F)[C@@H](O)C[C@]2(C)[C@H]1C(=O)CO [Desoximetasone]", "Category Label": "fulfilled"}
{"Molecule": "C[C@@H](O)[C@@H]1NC(=O)[C@H](CCCCN)NC(=O)[C@@H](Cc2c[nH]c3ccccc23)NC(=O)[C@H](Cc2ccccc2)NC(=O)[C@@H](NC(=O)[C@H](N)Cc2ccccc2)CSSC[C@@H](C(=O)N[C@H](CO)[C@@H](C)O)NC1=O [Octreotide Acetate]", "Category Label": "fulfilled"}
{"Molecule": "COC(=O)C1=CO[C@@H](O[C@@H]2O[C@H](CO)[C@@H](O)[C@H](O)[C@H]2O)[C@@H]2[C@@H](C)[C@@H](O)C[C@H]12 [Loganin]", "Category Label": "not fulfilled"}
{"Molecule": "CC(=O)Nc1ccc(OC(=O)c2ccccc2OC(C)=O)cc1 [Benorylate]", "Category Label": "fulfilled"}
{"Molecule": "C[C@@H]1NC(=O)[C@@H](N)CNC(=O)[C@H](C2CCNC(=N)N2)NC(=O)/C(=C/NC(N)=O)NC(=O)[C@H](CNC(=O)CC(N)CCCN)NC1=O.N=C1NCC[C@H]([C@@H]2NC(=O)/C(=C/NC(N)=O)NC(=O)[C@H](CNC(=O)C[C@@H](N)CCCN)NC(=O)[C@H](CO)NC(=O)[C@@H](N)CNC2=O)N1 [Capreomycin Sulfate]", "Category Label": "not fulfilled"}
{"Molecule": "NC(N)=Nc1nc(CSCC/C(N)=N/S(N)(=O)=O)cs1 [Famotidine]", "Category Label": "fulfilled"}
{"Molecule": "Nc1cccc2c1C(=O)N(C1CCC(=O)NC1=O)C2=O (stereo unspecified) [Pomalidomide]", "Category Label": "not fulfilled"}
{"Molecule": "CCCCc1ncc(/C=C(\\Cc2cccs2)C(=O)O)n1Cc1ccc(C(=O)O)cc1 [Eprosartan Mesylate]", "Category Label": "not fulfilled"}
{"Molecule": "C#C[C@]1(OC(C)=O)CC[C@H]2[C@@H]3CCC4=C[C@@H](OC(C)=O)CC[C@@H]4[C@H]3CC[C@@]21C [Ethynodiol diacetate]", "Category Label": "fulfilled"}
{"Molecule": "Cn1cc(C2=C(c3cccc(N)c3)C(=O)NC2=O)c2ccccc21", "Category Label": "fulfilled"}
{"Molecule": "Nc1ccc(S(=O)(=O)Nc2ncccn2)cc1 [Sulfadiazine]", "Category Label": "fulfilled"}
{"Molecule": "CN1CCCN=C1/C=C/c1cccs1 [Pyrantel Pamoate]", "Category Label": "fulfilled"}
{"Molecule": "CNNCc1ccc(C(=O)NC(C)C)cc1 [Procarbazine HCl]", "Category Label": "fulfilled"}

From: the supplement of paper PMC10127200
